# Tested on: biotinyl-Met-oxazolone
# protocol details: self-aminoacylation, catalytic enhancement (BMO) (fold over background); higher = more active; k-Seq, kA / k0A0; sequences stand for … in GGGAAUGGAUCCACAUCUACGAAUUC…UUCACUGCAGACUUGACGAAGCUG
Variants at the floor of the assay were thinned out.
parameter measured: self-aminoacylation
# answer = number (no unit)

Guide cases for self-aminoacylation, answers given:
{"columns": ["monomer sequence", "system name", "parameter measured", "recorded measurement"],
 "data": [
  ["AAUCACCUAGGUCAUCGGGAG [Fam2.2 aminoacylation ribozyme variant]", "biotinyl-Met-oxazolone", "self-aminoacylation", 1.89],
  ["AAGUUUGCUAAUAGUGGCUAG [Fam3.1 aminoacylation ribozyme variant]", "biotinyl-Met-oxazolone", "self-aminoacylation", 0.777],
  ["AAGUUUACUAAUAGUCACAAG [Fam3.1 aminoacylation ribozyme variant]", "biotinyl-Met-oxazolone", "self-aminoacylation", 1.33],
  ["CCACACUUCCAGCAAUCGUUC [Fam1B.1 aminoacylation ribozyme variant]", "biotinyl-Met-oxazolone", "self-aminoacylation", 0.642]
]}

Here's the next entry for you.
query: Look at this sequence and give its reported self-aminoacylation. AAUCACCUAGGUCAUCGGGUG [Fam2.2 aminoacylation ribozyme variant]
result: 7.92

---

# System: biotinyl-Ile-oxazolone
# protocol details: self-aminoacylation, catalytic enhancement (BIO) (fold over background); higher = more active; k-Seq, kA / k0A0; sequences stand for … in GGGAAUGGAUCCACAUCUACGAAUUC…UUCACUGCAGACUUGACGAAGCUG
Fewer inactive variants are shown than the library holds.
parameter measured: self-aminoacylation
# answer = number (no unit)

{"columns": ["monomer sequence", "self-aminoacylation"],
 "data": [
  ["AUUACCCUGGUCAUGGUGUGA [Fam2.1 aminoacylation ribozyme variant]", 1.27],
  ["AAGUUUUCUAAUAGUCGGAAG [Fam3.1 aminoacylation ribozyme variant]", 1.44],
  ["AUUCACCCAGGCCAUCGGGUG [Fam2.2 aminoacylation ribozyme variant]", 3.35]
]}

query: Form field - read-out: self-aminoacylation; system: biotinyl-Ile-oxazolone; submitted item: AAGUUUGCAAAUAGUCGAAAG [Fam3.1 aminoacylation ribozyme variant]
result: 0.956

query: Cool, now AAGUUUUCUACUAGUCGCAAG [Fam3.1 aminoacylation ribozyme variant]
result: 1.99

query: Cool, now CCACACUUUAAGCAAUCGGUA [Fam1B.1 aminoacylation ribozyme variant]
result: 0.788

query: Cool, now AAGUUUCCUAACAGUCGCAAG [Fam3.1 aminoacylation ribozyme variant]
result: 1.23

query: Cool, now CUACUUCAAACAAUCGGAUUG [Fam1A.1 aminoacylation ribozyme variant]
result: 0.999

query: Cool, now AUUACCUUGGUCAUCGAGUCA [Fam2.1 aminoacylation ribozyme variant]
result: 0.854

query: Cool, now CCACACUACAAGCAAUGGGUC [Fam1B.1 aminoacylation ribozyme variant]
result: 0.72

query: Cool, now GCGUUUGCUAAUAGUCGCAAG [Fam3.1 aminoacylation ribozyme variant]
result: 2.09

query: Cool, now AUUCACCUAGGUCUUCGGGUU [Fam2.2 aminoacylation ribozyme variant]
result: 2.82

query: Cool, now CUACUUCAAAAAAUCGGUCAG [Fam1A.1 aminoacylation ribozyme variant]
result: 0.845

query: Cool, now CUACUUCAAACAAUCGGUUUU [Fam1A.1 aminoacylation ribozyme variant]
result: 1.31

query: Cool, now AGGUUUCCUAAUAGUCGCAAG [Fam3.1 aminoacylation ribozyme variant]
result: 1.65

query: Cool, now AGUCACAUAGGUCAUCGGGUG [Fam2.2 aminoacylation ribozyme variant]
result: 7.04

query: Cool, now CUACUUCAAUCACUCGGUCUG [Fam1A.1 aminoacylation ribozyme variant]
result: 0.866

query: Cool, now CCACACUUCAAGCAAUCGGAU [Fam1B.1 aminoacylation ribozyme variant]
result: 1.03

---

# Lookup of reported self-aminoacylation keyed by entry
# System: biotinyl-Met-oxazolone
# protocol details: self-aminoacylation, catalytic enhancement (BMO) (fold over background); higher = more active; k-Seq, kA / k0A0; sequences stand for … in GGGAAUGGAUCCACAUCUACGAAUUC…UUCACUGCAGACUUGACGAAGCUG
Fewer inactive variants are shown than the library holds.
# answer = number (no unit)

{"columns": ["monomer sequence", "recorded measurement"],
 "data": [
  ["AUUACCCUGGUCGUCGAGUCA [Fam2.1 aminoacylation ribozyme variant]", 0.904]
]}

query: Look at this sequence and give its reported self-aminoacylation. GUUACCCUGGGCAUCGAGUGA [Fam2.1 aminoacylation ribozyme variant]
result: 8.99

query: Cool, now CCACACUUCAAGGAAUUGGUC [Fam1B.1 aminoacylation ribozyme variant]
result: 0.755

---

# Tested on: biotinyl-Phe-oxazolone
# protocol details: self-aminoacylation, catalytic enhancement (BFO) (fold over background); higher = more active; k-Seq, kA / k0A0; sequences stand for … in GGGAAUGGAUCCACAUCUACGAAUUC…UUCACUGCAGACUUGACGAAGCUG
Variants at the floor of the assay were thinned out.
# Lookup of reported self-aminoacylation keyed by entry
# answer = number (no unit)

Guide cases for self-aminoacylation, answers given:
{"columns": ["monomer sequence", "recorded measurement"],
 "data": [
  ["AUUCACCUAGGUGAUCGGGUA [Fam2.2 aminoacylation ribozyme variant]", 9.83],
  ["CUACUUCAAUCAAUCGGUCUA [Fam1A.1 aminoacylation ribozyme variant]", 13.7],
  ["AUUACUCUGGUCAUCGAAUGA [Fam2.1 aminoacylation ribozyme variant]", 0.918]
]}

query: Look at this sequence and give its reported self-aminoacylation. AUUACCCUGGUCAUCUAGUGA [Fam2.1 aminoacylation ribozyme variant]
result: 42.9

query: Cool, now AUUACCAUGGUCAUUGAGUGA [Fam2.1 aminoacylation ribozyme variant]
result: 63.6

query: Cool, now AUAACCCUGGUCAUCGAGAGA [Fam2.1 aminoacylation ribozyme variant]
result: 1.12

query: Cool, now CCACGCUUCAAGCAAACGGUC [Fam1B.1 aminoacylation ribozyme variant]
result: 0.644

query: Cool, now AAGUUUGCUAAUAGCAGCAAG [Fam3.1 aminoacylation ribozyme variant]
result: 1.12

query: Cool, now GUACACCUAGGUCAUCGGGUG [Fam2.2 aminoacylation ribozyme variant]
result: 18.5

---

# Test system: biotinyl-Phe-oxazolone
# protocol details: self-aminoacylation, catalytic enhancement (BFO) (fold over background); higher = more active; k-Seq, kA / k0A0; sequences stand for … in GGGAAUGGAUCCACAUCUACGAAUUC…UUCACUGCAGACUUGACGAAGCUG
Variants at the floor of the assay were thinned out.
# Lookup of reported self-aminoacylation keyed by entry

Guide cases for self-aminoacylation, answers given:
{"columns": ["monomer sequence", "self-aminoacylation"],
 "data": [
  ["AUUCACCUAGGUCAGGGGGUG [Fam2.2 aminoacylation ribozyme variant]", 13.9],
  ["GCGCACUUCAAGCAAUCGGUC [Fam1B.1 aminoacylation ribozyme variant]", 41.1],
  ["AUUACCAUGGUCAUCGAGCGA [Fam2.1 aminoacylation ribozyme variant]", 1.04]
]}

query: Look at this sequence and give its reported self-aminoacylation. CUACCUCAAACAAUCGGUCUG [Fam1A.1 aminoacylation ribozyme variant]
result: 3.14

---

# Tested on: biotinyl-Trp-oxazolone
# protocol details: self-aminoacylation, catalytic enhancement (BWO) (fold over background); higher = more active; k-Seq, kA / k0A0; sequences stand for … in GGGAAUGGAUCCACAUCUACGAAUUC…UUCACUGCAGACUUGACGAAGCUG
Fewer inactive variants are shown than the library holds.
parameter measured: self-aminoacylation

{"columns": ["monomer sequence", "self-aminoacylation"],
 "data": [
  ["AUUACCCCGGUCCUCGAGUGA [Fam2.1 aminoacylation ribozyme variant]", 4.82],
  ["CCACACUUCAUGGAAUCGGUC [Fam1B.1 aminoacylation ribozyme variant]", 0.598],
  ["AUUACCCGGGUCACCGAGUGA [Fam2.1 aminoacylation ribozyme variant]", 19.5],
  ["CUACUUCAAGCCAUCGGUCUG [Fam1A.1 aminoacylation ribozyme variant]", 0.696],
  ["AUACUUCAAACAAUCCGUCUG [Fam1A.1 aminoacylation ribozyme variant]", 1.17]
]}

query: Look at this sequence and give its reported self-aminoacylation. AUUACCCUGAUCAUCGCGUGA [Fam2.1 aminoacylation ribozyme variant]
result: 14.9

query: Cool, now AUUACCCUGCCCAUCGAGUGA [Fam2.1 aminoacylation ribozyme variant]
result: 6.52

query: Cool, now CCUCACUUCAGGCAAUCGGUC [Fam1B.1 aminoacylation ribozyme variant]
result: 0.952

query: Cool, now AAGUUGGCAAAUAGUCGCAAG [Fam3.1 aminoacylation ribozyme variant]
result: 2.03

---

# Lookup of reported self-aminoacylation keyed by entry
# System: biotinyl-Ile-oxazolone
# protocol details: self-aminoacylation, catalytic enhancement (BIO) (fold over background); higher = more active; k-Seq, kA / k0A0; sequences stand for … in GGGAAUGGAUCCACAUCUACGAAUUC…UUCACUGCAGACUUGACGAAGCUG
Variants at the floor of the assay were thinned out.
# answer = number (no unit)

Guide cases for self-aminoacylation, answers given:
{"columns": ["monomer sequence", "system name", "self-aminoacylation"],
 "data": [
  ["CUACUUCAAACAAUUGGUCGG [Fam1A.1 aminoacylation ribozyme variant]", "biotinyl-Ile-oxazolone", 1.25],
  ["CUACUUAAAACCAUCGGUCUG [Fam1A.1 aminoacylation ribozyme variant]", "biotinyl-Ile-oxazolone", 0.927],
  ["CUACUUAAAACAAUCGGGCUG [Fam1A.1 aminoacylation ribozyme variant]", "biotinyl-Ile-oxazolone", 1.31]
]}

query: Look at this sequence and give its reported self-aminoacylation. CUACUUCAAAGAAUCGAUCUG [Fam1A.1 aminoacylation ribozyme variant]
result: 0.679

query: Cool, now AUUCACCUAGGUCAUCGGGCG [Fam2.2 aminoacylation ribozyme variant]
result: 4.76
